For each of the binders below, state its ELISA reading at 3.7037 nM antibody.
biological target: Biotin QP004.3 (biotin-PDL1-FC) (human) (UniProt Q9NZQ7); test: blocking ELISA, PD1-FC coated, biotin-PDL1-FC plus antibody; competitor PD1-FC
Sequence (Q9NZQ7 19-238 limits assumed): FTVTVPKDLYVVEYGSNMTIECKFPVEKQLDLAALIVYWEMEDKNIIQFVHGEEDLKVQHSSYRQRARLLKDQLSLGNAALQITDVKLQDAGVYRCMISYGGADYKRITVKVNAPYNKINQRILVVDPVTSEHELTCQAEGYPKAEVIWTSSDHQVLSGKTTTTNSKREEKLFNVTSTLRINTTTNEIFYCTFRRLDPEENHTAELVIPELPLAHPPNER

Give me ELISA reading at 3.7037 nM antibody for each of these binders, listed below.
1. QP320 (Fc fusion, not shown: a dimerising Fc or GST) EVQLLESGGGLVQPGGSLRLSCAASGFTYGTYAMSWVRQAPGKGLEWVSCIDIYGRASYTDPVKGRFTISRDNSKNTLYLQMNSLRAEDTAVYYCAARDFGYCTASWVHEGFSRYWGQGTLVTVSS
2. QP324 (Fc fusion, not shown: a dimerising Fc or GST) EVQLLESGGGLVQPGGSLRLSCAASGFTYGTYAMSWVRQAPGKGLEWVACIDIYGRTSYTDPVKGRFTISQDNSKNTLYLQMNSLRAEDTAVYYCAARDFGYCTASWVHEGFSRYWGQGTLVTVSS
3. QP325 (Fc fusion, not shown: a dimerising Fc or GST) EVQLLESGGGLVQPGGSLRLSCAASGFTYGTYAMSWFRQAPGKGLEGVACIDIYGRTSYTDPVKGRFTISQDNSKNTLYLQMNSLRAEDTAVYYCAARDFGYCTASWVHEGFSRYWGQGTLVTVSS
4. QP1166 (Fc fusion, not shown: a dimerising Fc or GST) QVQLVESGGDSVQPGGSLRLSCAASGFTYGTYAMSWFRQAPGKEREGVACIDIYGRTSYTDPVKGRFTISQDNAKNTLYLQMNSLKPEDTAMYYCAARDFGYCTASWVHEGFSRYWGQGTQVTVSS

Result:
1. 1.11
2. 0.895
3. 1.03
4. 1.06
